- target.or.system: T1, human TIGIT on Jurkat cells (TIGIT/NFAT reporter Jurkat cells, BPS Bioscience #60538); Promega TIGIT Effector … (human, UniProt Q495A1 22-244)
- T1 construct: whole, on cells; Same protein on two bought Jurkat lines (flow cytometry: BPS; bioassay: Promega); also called hu TIGIT cells; cells expressing human TIGIT
- T1 sequence (looked up): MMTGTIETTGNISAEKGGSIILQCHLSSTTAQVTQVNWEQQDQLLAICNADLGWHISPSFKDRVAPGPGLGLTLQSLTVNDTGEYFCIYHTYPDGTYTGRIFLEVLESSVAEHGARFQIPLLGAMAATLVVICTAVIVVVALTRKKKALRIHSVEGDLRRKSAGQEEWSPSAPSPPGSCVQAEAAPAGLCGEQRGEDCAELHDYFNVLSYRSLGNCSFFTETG
- assay.method.text: flow cytometry, TIGIT/NFAT Jurkat cells, 10 ug/ml
Use 10000 MFI as the dividing line for MFI, with the line itself on the Met side and lower values as Not met.

Here are 2 binders together with their reported answers.
{"binder": "43645p1.F7 (scFv, V domains shown) VH: EVQLLESGGGLVQPGGSLRLSCAASGFTFSDFWMSWVRQAPGKGLEWVSSIINIQTYDYATYYADSVKGRFTISRDNSKNTLYLQMNSLRAEDTAIYYCAKDVAPGLPGGMDVWGQGTTVTVSS VL: QSVLTQPPSASGTPGQRVTISCSGSNSNIRNNFVSWYQHLPGTAPKLLIYGNSQRPSGVPDRFSGSKSGTSASLAISGLQSEDEADYYCTSWDFSVNGWVFGGGTKLTVL", "label.class": "Met"}
{"binder": "43586p2.A03 (scFv, V domains shown) VH: EVQLLESGGGLVQPGGSLRLSCAASGFTFTSYAMSWVRQAPGKGLEWVAGISYIGRNEYYADSVKGRLTISRDNSKNTLYLQMNNLRAEDTAIYYCAKHLTGGTTDYYYYGMDVWGQGTTVTVSS VL: QSVLTQPPSASGTPGQRVTISCSGSTSNIGTSRYVHWYQQLPGTAPKLLIYFDSQRPSGVPDRFSASKSGTSASLAISGLQSEDEADYYCATWDDSLSAWVFGGGTKLTVL", "label.class": "Not met"}

Query string: Would you say 43645p1.B8 (scFv, V domains shown) VH: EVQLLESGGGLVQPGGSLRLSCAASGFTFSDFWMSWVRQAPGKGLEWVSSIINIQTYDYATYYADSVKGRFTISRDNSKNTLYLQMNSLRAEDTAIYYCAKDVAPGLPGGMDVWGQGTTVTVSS VL: QSVLTQPPSASGTPGQRVTISCSGSNSNIRNNFVSWYQHLPGMAPKLLIYGNSQRPSGVPDRFSGSKSGTSASLAISGLQSEDEADYYCTSWDFSVNGWVFGGGTKLTVL shows MFI at minimum 10000 MFI?
Result string: Not met
